# assay system: α5ß2 γ2 GABAA Receptor (Homo sapiens, UniProt P18507+P31644)
# Sequence (P31644 32-462): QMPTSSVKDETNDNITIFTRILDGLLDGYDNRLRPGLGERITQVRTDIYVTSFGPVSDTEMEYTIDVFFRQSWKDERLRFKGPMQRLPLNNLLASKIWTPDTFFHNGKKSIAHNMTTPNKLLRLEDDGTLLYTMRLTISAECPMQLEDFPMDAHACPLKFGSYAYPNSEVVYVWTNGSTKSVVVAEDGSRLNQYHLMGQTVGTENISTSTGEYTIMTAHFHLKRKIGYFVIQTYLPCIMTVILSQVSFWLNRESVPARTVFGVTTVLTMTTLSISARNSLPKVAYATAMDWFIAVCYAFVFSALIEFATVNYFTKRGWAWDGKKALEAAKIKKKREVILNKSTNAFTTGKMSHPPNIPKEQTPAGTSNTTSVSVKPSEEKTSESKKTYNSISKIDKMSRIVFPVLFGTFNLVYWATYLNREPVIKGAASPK
# Sequence (P18507 40-376 limits assumed): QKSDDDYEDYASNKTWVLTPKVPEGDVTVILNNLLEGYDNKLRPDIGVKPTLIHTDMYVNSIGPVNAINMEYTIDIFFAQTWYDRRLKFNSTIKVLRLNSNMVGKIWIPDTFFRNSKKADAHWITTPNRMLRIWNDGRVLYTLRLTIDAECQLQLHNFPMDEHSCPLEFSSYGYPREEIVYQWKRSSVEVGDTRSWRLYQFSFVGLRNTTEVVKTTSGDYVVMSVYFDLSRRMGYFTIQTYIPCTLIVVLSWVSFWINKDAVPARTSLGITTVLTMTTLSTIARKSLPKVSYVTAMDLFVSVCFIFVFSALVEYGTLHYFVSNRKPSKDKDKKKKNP
# assay procedure: Assay B: in vitro evaluation of modulation of α5ß2γ2 GABAA receptor, two-electrode voltage clamp in oocytes
# Assay type: cell-based
attribute measured: Assay B: GABAA α 5 β 3 γ 2 Emax vs GABA (%)

// below: answered compounds
compound	measurement
Cc1nnn(-c2ccc(C(F)F)cn2)c1COc1ccc(-c2cncc(C#N)c2)nn1 [Example 13]	-9
CCn1cc(-c2ccc(OCc3c(C)nnn3-c3ccc(C(F)F)cn3)nn2)ccc1=O [Example 21]	-4
Cc1nnn(-c2ccc(C(F)F)cn2)c1COc1ccc(-n2ncnc2C)nn1 [Example 38]	-22.5
Cn1nnc(-c2ccc(C(F)F)cn2)c1COc1ccc(-c2cncc(C#N)c2)nn1 [Example 27]	-6.7
Cc1ncnn1-c1ccc(OCc2c(-c3ccc(C(F)F)cn3)nnn2C)nn1 [Example 48]	-13.2
Cn1nnc(-c2ccc(C(F)F)cn2)c1COc1ccc(-c2cnn(C3CCC3)c2)nn1 [Example 32]	-3.3
Cc1ncc(-c2ccc(OCc3c(C)nnn3-c3ccc(C(F)F)cn3)nn2)o1 [Example 18]	-28.7
Cn1ccc(-c2ccc(OCc3c(-c4ccc(C(F)F)cn4)nnn3C)nn2)n1 [Example 34]	-17

[A] Cn1nnc(-c2ccc(C(F)F)cn2)c1COc1ccc(-c2cnccn2)nn1 [Example 39]
[B] COc1ncc(-c2ccc(OCc3c(-c4ccc(C(F)F)cn4)nnn3C)nn2)cn1 [Example 31]
// max by Assay B: GABAA α 5 β 3 γ 2 Emax vs GABA over [ A , B ] Selection: enter the item's label.
B
(B: -12.3%, A: -24.6%)

[P] Cn1nnc(-c2ccc(C(F)F)cn2)c1COc1ccc(-n2cc(Cl)cn2)nn1 [Example 51]
[Q] Cn1nnc(-c2ccc(C(F)F)cn2)c1COc1ccc(-c2ccc(N)nc2)nn1 [Example 25]
[R] Cn1nnc(-c2ccc(C(F)F)cn2)c1COc1ccc(-n2cc(C#N)cn2)nn1 [Example 49]
[S] Cc1nn(C)cc1-c1ccc(OCc2c(-c3ccc(C(F)F)cn3)nnn2C)nn1 [Example 30]
[T] Cc1nccn1-c1ccc(OCc2c(-c3ccc(C(F)F)cn3)nnn2C)nn1 [Example 47]
Reorder: Assay B: GABAA α 5 β 3 γ 2 Emax vs GABA, max to min. Your reply should list the labels following the order given in the request.
R, S, T, Q, P
(R: 5.7%, S: -4.7%, T: -7%, Q: -11%, P: -27.3%)

[P] Cc1c(-c2ccc(OCc3c(-c4ccc(C(F)F)cn4)nnn3C)nn2)cnn1C [Example 33]
[Q] Cc1nnn(-c2ccc(C(F)F)cn2)c1COc1ccc(-c2cccc(C#N)n2)nn1 [Example 11]
Which of these two has the smaller recorded Assay B: GABAA α 5 β 3 γ 2 Emax vs GABA: P or Q ? Output the label that corresponds to your choice.
P
(P: -21%, Q: -13.5%)

[A] Cc1nnn(-c2ccc(C(F)F)cn2)c1COc1ccc(-c2ccc(=O)n(C)c2)nn1 [Example 1]
[B] Cn1nnc(-c2ccc(C(F)F)cn2)c1COc1ccc(-c2ccc(S(C)(=O)=O)nc2)nn1 [Example 23]
[C] CCc1nccn1-c1ccc(OCc2c(-c3ccc(C(F)F)cn3)nnn2C)nn1 [Example 45]
[D] CNc1cc(-c2ccc(OCc3c(-c4ccc(C(F)F)cn4)nnn3C)nn2)ccn1 [Example 26]
Arrange the 4 compounds by rising Assay B: GABAA α 5 β 3 γ 2 Emax vs GABA, starting with the smallest. To answer, arrange all of the labels according to the requested order.
A, C, B, D
